- test_system: rEP4 receptor (UniProt P43114)
- assay_name: Competitive binding assay of [3H]PGE2 to rEP4 receptor
- condition_set: read-out: EP4, Ki; [3H]-PGE2 competitive binding, membranes of transfected COS-7 cells, pH 6.0, 45 minutes at 23° C.
measure_name: pKi
API: returns pKi as number; meaning -log10 of concentration in mol/L.

-- ask What pKi value was documented for this compound, O=C(O)COCCCCN1C(=O)CC[C@@H]1/C=C/[C@@H](O)Cc1cccc(C(F)(F)F)c1 [Compound 10] ?
-- reply 8.15

###

Items are presented alongside their recorded Ki.
- test_system: rEP4 receptor (UniProt P43114)
- assay_name: Competitive binding assay of [3H]PGE2 to rEP4 receptor
- condition_set: [3H]-PGE2 competitive binding, membranes of transfected COS-7 cells, pH 6.0, 45 minutes at 23° C.; read-out: EP4, Ki
Give the quantity in nM, number only.

Study these solved cases before continuing.
| molecule | test_system | Ki (nM) |
| --- | --- | --- |
| CCCCC[C@H](O)/C=C/[C@H]1CCC(=O)N1CCSCCCC(=O)O | rEP4 receptor (UniProt P43114) | 5 |
| CCCCCC(C)(O)/C=C/[C@H]1CCC(=O)N1CCSCCCC(=O)O (stereo partly shown) | rEP4 receptor (UniProt P43114) | 90 |
| O=C(O)CCCSCCN1C(=O)CC[C@@H]1CC[C@@H](O)c1cccc(Oc2cccc(F)c2)c1 | rEP4 receptor (UniProt P43114) | 8 |

In the following, a different molecule is considered.
-- ask For CCCCC[C@H](O)/C=C/C1CCC(=O)N1OCCCCCC(=O)O (stereo partly shown) , what is its reported Ki?
-- reply 60
